# Tested on: INS-1 cells
# MEASUREMENT DESCRIPTION: Cell viability assay: protection of INS-1 cells from tunicamycin (Tm)-induced loss of viability (CellTiter-Glo, intracellular ATP)
# Type: cell-based, rat
# CONDITION DESCRIPTION: Rattus norvegicus, INS1; % rescue from Tm (0.15 μg/mL)-induced reduction of INS-1 cell viability (intracellular ATP); Tm alone 0%, DMSO without Tm 100%; 72 h; read-out: Maximum % of Protection
Heads up, the class ranges for Emax are bucket A: < 40%; bucket B: ≥ 40% and < 80%; bucket C: ≥ 80%

Some solved cases for reference:
O=C(NCc1ccc(C(F)(F)F)cc1)c1cccc(OCC2CCCCC2)c1 :: bucket C
COc1ccc(CNc2ncc(-c3ccccc3OC)[nH]2)cc1 :: bucket A
COc1cc(CNC(=O)c2cccc(O)c2)ccc1O :: bucket B

Categorize the following entry: O=C(NCc1cccc(O)c1)c1cccc(O)c1 [Compound 3q, 3-Hydroxy-N-(3-hydroxybenzyl)benzamide] bucket A

Categorize the following entry: O=C(NCc1ccc(C(F)(F)F)cc1)c1cccc(OCc2cccc(C(F)(F)F)c2)c1 bucket B

Categorize the following entry: Cc1c(Cl)cccc1C(=O)NCc1cccc(C(F)(F)F)c1 bucket C

Categorize the following entry: CN(C)c1ccc(CNC(=O)c2cccc(O)c2)cc1 bucket B

Categorize the following entry: COc1cc(CNC(=O)c2ccc(O)c(OC)c2)ccc1O bucket B

Categorize the following entry: COc1cc(C(=O)NCc2cccc(C(F)(F)F)c2)ccc1O bucket C

Categorize the following entry: O=C(NCc1cccc(C(F)(F)F)c1)c1ccc(O)c(O)c1 bucket B

Categorize the following entry: O=C(NCc1ccc(C(F)(F)F)cc1)c1cccc(O)c1 bucket C

Categorize the following entry: COc1cccc(NC(=O)NCc2ccc(C(F)(F)F)cc2)c1 bucket C

Categorize the following entry: CCc1ccc(C(=O)NCc2cccc(C(F)(F)F)c2)cc1 bucket B

Categorize the following entry: O=C(NCc1ccc(C(F)(F)F)cc1)Nc1cccc(O)c1 bucket B

Categorize the following entry: COc1cc(-c2ncc(-c3ccc(C(F)(F)F)cc3)[nH]2)ccc1O bucket A

Categorize the following entry: Oc1cccc(-c2ncc(-c3ccc(C(F)(F)F)cc3)[nH]2)c1O bucket A

Categorize the following entry: O=C(NCc1ccc(C(F)(F)F)cc1)c1ccc(O)cc1 bucket C

Categorize the following entry: Cc1ccc(C)c(NC(=O)c2nnn(-c3cccc(Cl)c3C)c2C)c1 [Compound 1, reference compound] bucket C

Categorize the following entry: COc1ccc(-c2ncc(-c3ccc(C(F)(F)F)cc3)[nH]2)cc1 bucket A

Categorize the following entry: COc1ccc(CNc2ncc(-c3ccc(C(F)(F)F)cc3)[nH]2)cc1 bucket A

---

# Tested on: INS-1 cells
# MEASUREMENT DESCRIPTION: Cell viability assay: protection of INS-1 cells from tunicamycin (Tm)-induced loss of viability (CellTiter-Glo, intracellular ATP)
# Assay type: cell-based, rat
# CONDITION DESCRIPTION: Rattus norvegicus, INS1; % rescue from Tm (0.15 μg/mL)-induced reduction of INS-1 cell viability (intracellular ATP); Tm alone 0%, DMSO without Tm 100%; 72 h; read-out: Maximum % of Protection
Listed compounds paired with reported Emax
Express the result in % but write the number alone.

// returns Emax for O=C(NCc1ccc(C(F)(F)F)cc1)c1cccc(O)c1O [Compound 3g] with INS-1 cells; value = 100

---

# System: INS-1 cells
# MEASUREMENT DESCRIPTION: Cell viability assay: protection of INS-1 cells from tunicamycin (Tm)-induced loss of viability (CellTiter-Glo, intracellular ATP)
# Format: cell-based, rat
# CONDITION DESCRIPTION: Rattus norvegicus, INS1; % rescue from Tm (0.15 μg/mL)-induced reduction of INS-1 cell viability (intracellular ATP); Tm alone 0%, DMSO without Tm 100%; 72 h; read-out: Maximum % of Protection
READOUT TYPE: Emax (%)
Express the result in % but write the number alone.

// solved cases for Emax follow
O=C(NCc1ccc(C(F)(F)F)cc1)c1cccc(OCC2CCNCC2)c1 :: 81
CC(C)c1ccc(CNC(=O)c2cccc(O)c2)cc1 [Compound 3o, 3-Hydroxy-N-(4-isopropylbenzyl)benzamide] :: 82

// COc1cccc(COc2cccc(C(=O)NCc3ccc(C(F)(F)F)cc3)c2)c1 : Emax value = 81

---

# Tested on: INS-1 cells
# MEASUREMENT DESCRIPTION: Cell viability assay: protection of INS-1 cells from tunicamycin (Tm)-induced loss of viability (CellTiter-Glo, intracellular ATP)
# Type: cell-based, rat
# CONDITION DESCRIPTION: Rattus norvegicus, INS1; % rescue from Tm (0.15 μg/mL)-induced reduction of INS-1 cell viability (intracellular ATP); Tm alone 0%, DMSO without Tm 100%; 72 h; read-out: Maximum % of Protection
# Experimental: INS-1 cells were resuspended in RPMI 1640 medium containing 10% FBS and seeded at 5×10^3 cells/well in a 384-well plate. […] Luminescence was measured 10 min later using a Synergy Neo2 plate reader (Biotek). Hydroxy benzamide (HBA) derivatives were synthesized based on various scaffolds and evaluated for their viability of rat INS-1 β cells in the presence of tunicamycin (Tm), a potent ER stress inducer that inhibits N-linked glycosylation of proteins. […]
READOUT TYPE: Emax (%)
Express the result in % but write the number alone.

// COc1ccc(CNC(=O)c2cccc(O)c2)cc1 [Compound 3r, 3-Hydroxy-N-(4-methoxybenzyl)benzamide] : Emax value = 65

// COc1cccc(C(=O)NCc2ccc(C(F)(F)F)cc2)c1 : Emax value = 71

// O=C(NCc1cccc(C(F)(F)F)c1)c1cccc(O)c1 : Emax value = 37

// O=C(NCc1ccc(C(F)(F)F)cc1)c1ccc(O)c(O)c1 : Emax value = 100
